Data provenance: patent US20150197497A1

STUDY TARGET: HDAC3 (Homo sapiens)
Construct: Recombinant, full-length HDAC protein (BPS Biosciences) was incubated with fluorophore conjugated substrate
Sequence (O15379 whole entry): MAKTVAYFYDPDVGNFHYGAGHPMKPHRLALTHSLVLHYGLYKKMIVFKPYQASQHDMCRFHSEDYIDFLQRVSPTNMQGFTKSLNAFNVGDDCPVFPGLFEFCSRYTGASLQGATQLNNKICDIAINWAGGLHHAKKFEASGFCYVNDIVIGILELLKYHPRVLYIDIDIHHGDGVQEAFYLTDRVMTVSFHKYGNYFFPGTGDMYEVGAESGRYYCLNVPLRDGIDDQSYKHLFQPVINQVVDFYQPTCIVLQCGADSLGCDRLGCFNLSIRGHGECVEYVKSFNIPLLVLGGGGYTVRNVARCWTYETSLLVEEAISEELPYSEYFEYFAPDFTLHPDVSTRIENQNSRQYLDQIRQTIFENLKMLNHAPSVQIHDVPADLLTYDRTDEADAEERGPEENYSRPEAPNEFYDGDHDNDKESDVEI
Sequence (Q9Y618 395-489 partner limits assumed): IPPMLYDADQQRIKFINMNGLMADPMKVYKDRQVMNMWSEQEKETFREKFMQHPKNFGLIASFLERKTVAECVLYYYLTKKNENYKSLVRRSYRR
PROCEDURE SUMMARY: In vitro HDAC enzyme inhibition assay, HDAC3
CONDITION: recombinant full-length HDAC3, substrate MAZ1600 9 μM
Labelling: IC50 reported below 0.6 µM becomes Met; at or above becomes Not met.

Worked examples, 4 compounds total:
>>> assigned_category("O=C(NO)c1ccc(Cn2c(C(F)(F)F)nc3ccccc32)cc1 [A1]")
"Not met"
>>> assigned_category("O=C(NO)c1ccc(Cn2c(=O)[nH]c3cc(C(F)(F)F)ccc32)cc1 [B6]")
"Met"
>>> assigned_category("O=C(NO)c1ccc(Cn2c(=O)[nH]c3cc(F)ccc32)cc1 [B3]")
"Met"
>>> assigned_category("O=C(NO)c1ccc(Cn2nnc3ccccc32)cc1 [C1]")
"Met"

Just wondering, is IC50 of O=C(NO)c1ccc(Cn2nnc3cc(Br)ccc32)cc1 [C5] below 0.6 µM?
Met

Just wondering, is IC50 of O=C(NO)c1ccc(Cn2cnc3cc(Br)ccc32)cc1 [A11] below 0.6 µM?
Met

Just wondering, is IC50 of O=C(NO)c1ccc(Cn2c(=O)[nH]c3cc(Br)ccc32)cc1 [B5] below 0.6 µM?
Met

Just wondering, is IC50 of O=C(NO)c1ccc(Cn2c(C(F)(F)F)nc3cc(Br)ccc32)cc1 [A5] below 0.6 µM?
Not met

Just wondering, is IC50 of COc1ccc2c(c1)nc(C(F)(F)F)n2Cc1ccc(C(=O)NO)cc1 [A6] below 0.6 µM?
Not met

Just wondering, is IC50 of O=C(NO)c1ccc(Cn2c(C(F)(F)F)nc3cc(F)ccc32)cc1 [A3] below 0.6 µM?
Not met

====

# maps each entry to its log10 of IC50
STUDY TARGET: HDAC6 (Homo sapiens)
Construct: Recombinant, full-length HDAC protein (BPS Biosciences) was incubated with fluorophore conjugated substrate
Sequence (Q9UBN7 1-1215): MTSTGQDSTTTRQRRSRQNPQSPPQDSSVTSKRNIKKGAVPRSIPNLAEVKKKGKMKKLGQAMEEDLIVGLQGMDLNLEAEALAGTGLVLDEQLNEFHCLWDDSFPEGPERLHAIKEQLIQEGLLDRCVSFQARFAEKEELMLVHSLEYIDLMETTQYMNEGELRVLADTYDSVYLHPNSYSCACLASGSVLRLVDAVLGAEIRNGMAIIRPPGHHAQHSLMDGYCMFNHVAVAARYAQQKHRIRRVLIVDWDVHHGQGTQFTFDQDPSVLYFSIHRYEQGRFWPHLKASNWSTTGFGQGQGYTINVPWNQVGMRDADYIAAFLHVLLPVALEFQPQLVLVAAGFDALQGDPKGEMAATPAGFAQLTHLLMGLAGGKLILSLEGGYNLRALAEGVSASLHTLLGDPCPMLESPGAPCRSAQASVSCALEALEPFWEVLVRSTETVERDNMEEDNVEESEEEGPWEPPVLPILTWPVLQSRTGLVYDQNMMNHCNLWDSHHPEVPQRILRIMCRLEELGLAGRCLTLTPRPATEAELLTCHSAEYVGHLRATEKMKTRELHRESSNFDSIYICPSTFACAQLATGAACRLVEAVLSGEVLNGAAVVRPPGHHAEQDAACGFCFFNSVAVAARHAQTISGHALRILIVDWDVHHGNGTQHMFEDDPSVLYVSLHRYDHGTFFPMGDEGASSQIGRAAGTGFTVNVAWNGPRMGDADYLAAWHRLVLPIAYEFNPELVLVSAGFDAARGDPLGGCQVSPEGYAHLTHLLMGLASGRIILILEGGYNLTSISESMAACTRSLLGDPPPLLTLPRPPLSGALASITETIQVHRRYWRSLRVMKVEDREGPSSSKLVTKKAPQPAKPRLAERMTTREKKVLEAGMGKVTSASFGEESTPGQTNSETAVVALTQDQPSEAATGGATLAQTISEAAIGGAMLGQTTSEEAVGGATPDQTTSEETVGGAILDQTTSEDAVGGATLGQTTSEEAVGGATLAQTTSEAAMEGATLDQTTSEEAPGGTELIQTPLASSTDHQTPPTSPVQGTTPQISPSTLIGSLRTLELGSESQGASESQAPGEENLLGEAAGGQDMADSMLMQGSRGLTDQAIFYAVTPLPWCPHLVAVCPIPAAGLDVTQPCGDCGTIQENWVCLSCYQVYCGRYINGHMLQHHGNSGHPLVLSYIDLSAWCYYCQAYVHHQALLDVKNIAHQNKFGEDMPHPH
PROCEDURE SUMMARY: In vitro HDAC enzyme inhibition assay, HDAC6
CONDITION: recombinant full-length HDAC6, substrate MAZ1600 9 μM
Experimental: In vitro Histone Deacetylase enzyme assays were performed using Class I (isoforms: HDAC1, HDAC2, HDAC3 and HDAC8), class IIa (isoforms: HDAC4, HDAC5, HDAC7 and HDAC9) and class IIb (isoform HDAC6). HDAC activities were determined in vitro with an optimized homogenous assay performed in a 384-well plate. […] Fluorescence measurements were obtained every five minutes using a multilabel plate reader and plate-stacker (Envision; Perkin-Elmer). […]
log10 IC50, nM

A selection of reference data follows.
>>> observed_result("O=C(NO)c1ccc(Cn2c(=O)[nH]c3cc(F)ccc32)cc1 [B3]")
-1.67
>>> observed_result("COc1ccc2c(c1)ncn2Cc1ccc(C(=O)NO)cc1 [A12]")
-0.66
>>> observed_result("COc1ccc2c(c1)[nH]c(=O)n2Cc1ccc(C(=O)NO)cc1 [B7]")
-1.59

For HDAC6 (Homo sapiens), give log10 of IC50 of the listed compound: Cc1ccc2c(c1)[nH]c(=O)n2Cc1ccc(C(=O)NO)cc1 [B2]
-2.54
